- Measured Target: HuNoV (GII.4) RdRp (Norovirus GII.4 (Human norovirus, Norovirus norwalkense), UniProt P54634)
- Sequence (P54634 1190-1699): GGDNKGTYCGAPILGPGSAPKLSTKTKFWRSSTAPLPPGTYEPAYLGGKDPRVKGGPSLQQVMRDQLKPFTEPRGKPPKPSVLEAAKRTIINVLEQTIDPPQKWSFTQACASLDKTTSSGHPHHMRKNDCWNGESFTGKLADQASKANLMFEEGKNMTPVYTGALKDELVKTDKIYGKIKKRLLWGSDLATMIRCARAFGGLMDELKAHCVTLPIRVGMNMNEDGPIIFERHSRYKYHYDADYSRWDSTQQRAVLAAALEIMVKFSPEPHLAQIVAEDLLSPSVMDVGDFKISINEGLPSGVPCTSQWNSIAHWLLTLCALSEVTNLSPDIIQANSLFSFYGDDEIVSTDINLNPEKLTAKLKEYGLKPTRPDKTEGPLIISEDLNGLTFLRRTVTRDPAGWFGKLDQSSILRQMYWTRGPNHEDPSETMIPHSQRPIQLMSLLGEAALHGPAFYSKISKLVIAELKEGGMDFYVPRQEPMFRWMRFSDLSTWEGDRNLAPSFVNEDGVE
- Experimental Protocol: Gel-based (gel-shift) RdRp primed elongation assay with PE44-NoV template
- Format: biochemical
- Condition Notes: compounds at fixed concentration of 100 μM
Property Label: Inhibition of RdRp primed elongation activity (gel-shift)

> print(dat)
                                   compound  experimental.result
1  COc1ccc(N2C(=O)c3ccc(C(=O)O)cc3C2=O)cc1NC(=O)c1ccccc1 [Compound 2]   partial inhibition
2  O=C(CN1C(=O)S/C(=C\c2ccc(-c3ccc(OP(=O)(O)O)cc3)o2)C1=O)N1CCOCC1 [Compound 4c]   partial inhibition
3  Cc1ccc(NC(=O)CSc2n[nH]c(-c3ccccc3O)n2)c(C)c1 [Compound 1]   partial inhibition
4  Cc1ccc(NC(=O)CS(=O)(=O)c2n[nH]c(-c3ccccc3O)n2)c(C)c1 [Compound 1f]   partial inhibition

====

- Measured Target: HuNoV (GII.4) RdRp (Norovirus GII.4 (Human norovirus, Norovirus norwalkense))
- Experimental Protocol: Quantitative fluorescent RdRp activity assay (PicoGreen, poly(C) template)
- Type: biochemical
- Condition Notes: compounds at 20 μM in triplicate, normalized to DMSO control
Property Label: Inhibition of HuNoV RdRp activity at 20 μM

> print(dat)
                                 cpd.smiles  experimental.result
1  O=C(N/N=C/c1ccc(OCc2ccccc2)cc1O)c1ccccc1O    modest inhibition
2  Cc1cc(O)ccc1-c1ccc(/C=C2\SC(=O)N(CC(=O)N3CCOCC3)C2=O)o1    modest inhibition
3  O=C(N/N=C/c1ccc(O)cc1O)c1ccccc1OCc1ccccc1    modest inhibition

Measured values drawn from paper PMC9864251 for this set.
